tested on: Staphylococcus aureus; experiment: Antibacterial activity against methicillin-resistant Staphylococcus aureus clinical isolates after 24 hrs by CLSI […] broth microdilution method; format: functional; conditions: read-out: MBC99.9
Measured MBC accompanies every entry in the list below.

Some solved entries appear below for comparison.
In [3]: df
Out[3]:
                                   compound      result
0  NC(=O)c1c(F)ccc(OCC2COc3cc(Cl)c(Cl)cc3O2)c1F (stereo not given)  6.25 µg/mL
1            CCCCCCCCCOc1ccc(F)c(C(N)=O)c1F  0.78 µg/mL
2  NC(=O)c1c(F)ccc(OCC2COc3ccccc3O2)c1F (stereo not given)  6.25 µg/mL
3  NC(=O)c1c(F)ccc(OCC2COc3ccc(I)cc3O2)c1F (stereo not given)  1.56 µg/mL

Give recorded MBC with Staphylococcus aureus for the following compound: NC(=O)c1c(F)ccc(OC[C@@H]2COc3ccc(Cl)cc3O2)c1F
0.78 µg/mL

* * *

Measured TD90 accompanies every entry in the list below.
experiment: Cytotoxicity against human MRC5 cells assessed as reduction in cell viability after 24 hrs by MTT assay; type: toxicity, cell-based; settings: mrc5, 24 h

Some solved entries appear below for comparison.
In [3]: df
Out[3]:
                                   compound        result
0  C#Cc1ccc2c(c1)OC(COc1ccc(F)c(C(N)=O)c1F)CO2 (stereo unspecified)     400 µg/mL
1  NC(=O)c1c(F)ccc(OCC2COc3ccc(Br)cc3O2)c1F (stereo unspecified)   > 800 µg/mL
2  COC(=O)c1ccc2c(c1)OC(COc1ccc(F)c(C(N)=O)c1F)CO2 (stereo unspecified)  > 1280 µg/mL
3            CCCCCCCCCOc1ccc(F)c(C(N)=O)c1F   > 200 µg/mL

// TD90 lookup, key: C=Cc1ccc2c(c1)OC(COc1ccc(F)c(C(N)=O)c1F)CO2 (stereo unspecified)
> 800 µg/mL

// TD90 lookup, key: NC(=O)c1c(F)ccc(OCC2COc3ccc(I)cc3O2)c1F (stereo unspecified)
> 800 µg/mL

* * *

experiment: Therapeutic index, ratio of TD90 for human MRC5 cells to MBC for […] Staphylococcus aureus ATCC 29213; type: cell-based; conditions: read-out: TI
measured quantity: selectivity ratio

// selectivity ratio lookup, key: C#Cc1ccc2c(c1)OC(COc1ccc(F)c(C(N)=O)c1F)CO2 (stereo unspecified)
640

// selectivity ratio lookup, key: NC(=O)c1c(F)ccc(OCC2COc3ccc(I)cc3O2)c1F (stereo unspecified)
> 1280

// selectivity ratio lookup, key: CCCCCCCCCOc1ccc(F)c(C(N)=O)c1F
> 200

// selectivity ratio lookup, key: C=Cc1ccc2c(c1)OC(COc1ccc(F)c(C(N)=O)c1F)CO2 (stereo unspecified)
> 640

// selectivity ratio lookup, key: NC(=O)c1c(F)ccc(OCC2COc3ccc(Br)cc3O2)c1F (stereo unspecified)
> 1280

// selectivity ratio lookup, key: COC(=O)c1ccc2c(c1)OC(COc1ccc(F)c(C(N)=O)c1F)CO2 (stereo unspecified)
> 1280

* * *

test system: Enterococcus faecalis; experiment: Antibacterial activity against vancomycin-susceptible Enterococcus faecalis clinical isolates after 24 hrs by CLSI […] broth microdilution method; format: functional
measured quantity: MIC90 (µg/mL)
The response must be a number in µg/mL with no trailing unit.

>>> print(df.to_string())
                                   molecule  value_unit  measured_number
0  NC(=O)c1c(F)ccc(OCC2COc3ccc(I)cc3O2)c1F (stereo not given)       µg/mL             6.25

// MIC90 lookup, key: NC(=O)c1c(F)ccc(OCC2COc3cc(Cl)c(Cl)cc3O2)c1F (stereo not given)
6.25

// MIC90 lookup, key: NC(=O)c1c(F)ccc(OCC2COc3ccccc3O2)c1F (stereo not given)
25

// MIC90 lookup, key: NC(=O)c1c(F)ccc(OC[C@@H]2COc3ccc(Cl)cc3O2)c1F
25

// MIC90 lookup, key: CCCCCCCCCOc1ccc(F)c(C(N)=O)c1F
6.25
